Origin of the recorded values: the supplement of paper PMC11246515

The entries below are paired with their reported total protein half-life in vivo.
experiment: total protein half-life in vivo (active degradation + dilution); higher = more stable protein; settings: wild type E. coli NCM3722; growth: P-lim chemostat; doubling time 12 h
Don't forget the unit after the value.

1) MQKEQLSALMDGETLDSELLNELAHNPEMQKTWESYHLIRDSMRGDTPEVLHFDISSRVMAAIEEEPVRQPATLIPEAQPAPHQWQKMPFWQKVRPWAAQLTQMGVAACVSLAVIVGVQHYNGQSETSQQPETPVFNTLPMMGKASPVSLGVPSEATANNGQQQQVQEQRRRINAMLQDYELQRRLHSEQLQFEQAQTQQAAVQVPGIQTLGTQSQ [P0AFX7] :: 1.03 h
2) MDFNLNDEQELFVAGIRELMASENWEAYFAECDRDSVYPERFVKALADMGIDSLLIPEEHGGLDAGFVTLAAVWMELGRLGAPTYVLYQLPGGFNTFLREGTQEQIDKIMAFRGTGKQMWNSAITEPGAGSDVGSLKTTYTRRNGKIYLNGSKCFITSSAYTPYIVVMARDGASPDKPVYTEWFVDMSKPGIKVTKLEKLGLRMDSCCEITFDDVELDEKDMFGREGNGFNRVKEEFDHERFLVALTNYGTAMCAFEDAARYANQRVQFGEAIGRFQLIQEKFAHMAIKLNSMKNMLYEAAWKADNGTITSGDAAMCKYFCANAAFEVVDSAMQVLGGVGIAGNHRISRFWRDLRVDRVSGGSDEMQILTLGRAVLKQYR :: 11.5 h
3) MESGHRFDAQTLHSFIQAVFRQMGSEEQEAKLVADHLIAANLAGHDSHGIGMIPSYVRSWSQGHLQINHHAKTVKEAGAAVTLDGDRAFGQVAAHEAMALGIEKAHQHGIAAVALHNSHHIGRIGYWAEQCAAAGFVSIHFVSVVGIPMVAPFHGRDSRFGTNPFCVVFPRKDNFPLLLDYATSAIAFGKTRVAWHKGVPVPPGCLIDVNGVPTTNPAVMQESPLGSLLTFAEHKGYALAAMCEILGGALSGGKTTHQETLQTSPDAILNCMTTIIINPELFGAPDCNAQTEAFAEWVKASPHDDDKPILLPGEWEVNTRRERQKQGIPLDAGSWQAICDAARQIGMPEETLQAFCQQLAS :: 10.3 h

Which total protein half-life in vivo is reported for this sequence? MVSSFTSAPRSGFYYFAQGWKLVSQPGIRRFVILPLLVNILLMGGAFWWLFTQLDVWIPTLMSYVPDWLQWLSYLLWPLAVISVLLVFGYFFSTIANWIAAPFNGLLAEQLEARLTGATPPDTGIFGIMKDVPRIMKREWQKFAWYLPRAIVLLILYFIPGIGQTVAPVLWFLFSAWMLAIQYCDYPFDNHKVPFKEMRTALRTRKITNMQFGALTSLFTMIPLLNLFIMPVAVCGATAMWVDCYRDKHAMWR [P0A6J3]
13.2 h

Same read-out for "MDYVCSVVFICQSFDLIINRRVISFKKNSLFIVSDKIRRELPVCPSKLRIVDIDKKTCLSFFIDVNNELPGKFTLDKNGYIAEEEPPLSLVFSLFEGIKIADSHSLWLKERLCISLLAMFKKRESVNSFILTNINTFTCKITGIISFNIERQWHLKDIAELIYTSESLIKKRLRDEGTSFTEILRDTRMRYAKKLITSNSYSINVVAQKCGYNSTSYFICAFKDYYGVTPSHYFEKIIGVTDGINKTID" ?
7.61 h

Same read-out for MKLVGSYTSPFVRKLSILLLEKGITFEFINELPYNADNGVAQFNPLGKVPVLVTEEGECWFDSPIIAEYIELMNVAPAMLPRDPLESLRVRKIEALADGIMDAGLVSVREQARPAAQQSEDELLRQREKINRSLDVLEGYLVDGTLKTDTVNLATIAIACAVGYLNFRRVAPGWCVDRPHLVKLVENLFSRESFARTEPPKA [P0ACA1] ?
12 h
